# Measurement Protocol: xn = mol fraction of the nth substance listed, in the solute-free solvent
# Condition Info: 278.15 K; x2 = 0.1666
Measured Attribute: solubility (g/100 g solution)

compound="CC(=O)Nc1ccc(OC(=O)c2ccccc2OC(C)=O)cc1 + CC(C)O + O" measured_attribute="solubility (g/100 g solution)" assay_result=0.0246
compound="COC(=O)C1=C(C)NC(C)=C(C(=O)OCC(C)C)C1c1ccccc1[N+](=O)[O-] (centres undefined) + CCCO + O" measured_attribute="solubility (g/100 g solution)" assay_result=1.41
compound="CS(=O)(=O)c1ccc(C(O)C(CF)NC(=O)C(Cl)Cl)cc1 (centres undefined) + CC(C)O + O" measured_attribute="solubility (g/100 g solution)" assay_result=0.199
compound="COC(=O)C1=C(C)NC(C)=C(C(=O)OCC(C)C)C1c1ccccc1[N+](=O)[O-] (centres undefined) + CC(C)O + O" measured_attribute="solubility (g/100 g solution)" assay_result=1.78

* * *

# Measurement Protocol: xn = mol fraction of the nth substance listed, in the solute-free solvent
# Condition Info: 313.15 K; x2 = 0.3698
Measured Attribute: solubility (g/100 g solution)

molecule="CC(=O)Nc1ccc(OC(=O)c2ccccc2OC(C)=O)cc1 + CCO + O" assay_result=0.542
molecule="CS(=O)(=O)c1ccc(C(O)C(CF)NC(=O)C(Cl)Cl)cc1 (centres undefined) + CCO + O" assay_result=3.69
molecule="COC(=O)C1=C(C)NC(C)=C(C(=O)OCC(C)C)C1c1ccccc1[N+](=O)[O-] (centres undefined) + CCO + O" assay_result=6.22
molecule="O=[N+]([O-])c1cc[nH]n1 + CCO + O" assay_result=3.05

* * *

Quick reference for solubility (g/100 g solution) among some compounds
# Measurement Protocol: xn = mol fraction of the nth substance listed, in the solute-free solvent
# Condition Info: 308.15 K; x2 = 0.2307
Measured Attribute: solubility (g/100 g solution)

compound="CS(=O)(=O)c1ccc(C(O)C(CF)NC(=O)C(Cl)Cl)cc1 (stereo not given) + CC(C)O + O" assay_result=1.19
compound="O=[N+]([O-])c1cc[nH]n1 + CCCO + O" assay_result=3.48
compound="O=c1[nH]cc(F)c(=O)[nH]1 + CCCO + C1CCOC1" assay_result=0.313
compound="CC(=O)Nc1ccc(OC(=O)c2ccccc2OC(C)=O)cc1 + CC(C)O + O" assay_result=0.217
compound="COC(=O)C1=C(C)NC(C)=C(C(=O)OCC(C)C)C1c1ccccc1[N+](=O)[O-] (stereo not given) + CCCO + O" assay_result=5.22

* * *

# Measurement Protocol: xn = mol fraction of the nth substance listed, in the solute-free solvent
# Condition Info: 308.15 K; x2 = 0.8
Classification by solubility (g/100 g solution) | ranges: low value: < 2; medium value: ≥ 2 and < 6; high value: ≥ 6

compound="CN1CCN(C(=O)OC2c3nccnc3C(=O)N2c2ccc(Cl)cn2)CC1 (stereo not given) + CC(C)=O + O" label_value="medium value"
compound="CN1CCN(C(=O)OC2c3nccnc3C(=O)N2c2ccc(Cl)cn2)CC1 (stereo not given) + CC#N + O" label_value="medium value"
compound="CCCCN1CCCCC1C(=O)Nc1c(C)cccc1C.Cl.O (stereo not given) + CCO + O" label_value="high value"
compound="O=c1ccc2ccccc2o1 + CO + O" label_value="high value"
compound="CN1CCN(C(=O)OC2c3nccnc3C(=O)N2c2ccc(Cl)cn2)CC1 (stereo not given) + CCO + O" label_value="low value"
compound="CN1CCN(C(=O)OC2c3nccnc3C(=O)N2c2ccc(Cl)cn2)CC1 (stereo not given) + C1CCOC1 + O" label_value="medium value"
compound="CC1(C)SC2C(NC(=O)C(NC(=O)N3CCNC3=O)c3ccccc3)C(=O)N2C1C(=O)O (stereo not given) + CCO + CC(C)O" label_value="low value"
compound="O=C(CC(=O)c1ccccc1)c1ccccc1 + CCO + O" label_value="medium value"
compound="CCCCN1CCCCC1C(=O)Nc1c(C)cccc1C.Cl.O (stereo not given) + CO + O" label_value="high value"
